target: human orexin-2 receptor (Homo sapiens, UniProt O43614); experiment: Intracellular calcium measurement (FLIPR), antagonism of orexin-A response in CHO cells expressing OX2R
Sequence (O43614 whole entry): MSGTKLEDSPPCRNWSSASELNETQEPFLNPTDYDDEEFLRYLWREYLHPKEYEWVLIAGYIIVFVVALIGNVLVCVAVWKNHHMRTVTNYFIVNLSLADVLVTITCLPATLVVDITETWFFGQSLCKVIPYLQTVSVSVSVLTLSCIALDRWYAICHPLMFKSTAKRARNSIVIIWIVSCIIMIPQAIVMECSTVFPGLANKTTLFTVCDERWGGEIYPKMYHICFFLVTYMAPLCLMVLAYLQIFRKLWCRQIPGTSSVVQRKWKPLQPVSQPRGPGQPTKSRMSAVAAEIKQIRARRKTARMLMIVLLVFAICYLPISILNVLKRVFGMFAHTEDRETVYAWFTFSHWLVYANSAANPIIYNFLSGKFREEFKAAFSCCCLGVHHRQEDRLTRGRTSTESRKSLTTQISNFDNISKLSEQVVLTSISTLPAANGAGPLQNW
attribute measured: pIC50
The meaning of pIC50 here: minus log10 of the concentration in molar units.

Consider `O=C(c1c(-c2ccccc2)nn2ccccc12)N1CCC[C@H]1Cn1ccc(-c2ccccc2)n1` . Its measured pIC50 is 7.15

====

target: human orexin-1 receptor (Homo sapiens, UniProt O43613); experiment: Intracellular calcium measurement (FLIPR), antagonism of orexin-A response in CHO cells expressing OX1R; details: CHO, read-out: % Inhibition of OX1R @1 uM compound
Sequence (O43613 whole entry): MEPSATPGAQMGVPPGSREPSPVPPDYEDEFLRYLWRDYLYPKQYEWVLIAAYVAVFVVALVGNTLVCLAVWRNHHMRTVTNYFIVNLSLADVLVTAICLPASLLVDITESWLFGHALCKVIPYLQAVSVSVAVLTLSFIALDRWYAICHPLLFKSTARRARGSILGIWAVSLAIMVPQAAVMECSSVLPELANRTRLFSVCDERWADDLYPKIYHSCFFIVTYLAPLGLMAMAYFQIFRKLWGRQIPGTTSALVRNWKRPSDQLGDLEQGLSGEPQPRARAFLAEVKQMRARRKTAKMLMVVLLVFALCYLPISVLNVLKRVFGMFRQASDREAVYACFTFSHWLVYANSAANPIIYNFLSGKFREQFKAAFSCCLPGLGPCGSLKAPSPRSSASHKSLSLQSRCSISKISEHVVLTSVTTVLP
attribute measured: inhibition at 1 µM (%)
Response body: numeric value in %, unit text excluded.

Completed entries (count: 4):
CCc1cnc(NC[C@@H]2CCCN2C(=O)c2c(-c3ccccc3)nn3ccccc23)nc1 | 54.1
CCc1cnc(OC[C@@H]2CCCN2C(=O)c2c(-c3ccccc3)nc3ccccn23)nc1 | -10.8
C[C@@H]1CCCN(C(=O)c2c(-c3ccccc3)nn3c2COCC3)[C@@H]1CNc1ccc(C(F)(F)F)cn1 | 80.1
CCc1cnc(NC[C@@H]2CCCN2C(=O)c2c(-c3ccccc3)nn3c2COCC3)nc1 | 14

Alright, here's another compound for you.
Consider `O=C(c1c(-c2ccccc2)nn2c1COCC2)N1CCC[C@H]1CNc1ccc(C(F)(F)F)cn1` . Its measured inhibition at 1 µM is 62.8

====

biological target: human orexin-2 receptor (Homo sapiens, UniProt O43614); experiment: Intracellular calcium measurement (FLIPR), antagonism of orexin-A response in CHO cells expressing OX2R; settings: CHO, read-out: % Inhibition of OX2R @1 uM compound
inhibition at 1 µM: recorded values
Response body: numeric value in %, unit text excluded.

Completed entries (count: 4):
CCc1cnc(NC[C@@H]2[C@H](C)CCCN2C(=O)c2c(-c3ccccc3)nn3c2COCC3)nc1 | 0.4
O=C(c1c(-c2ccccc2)nn2c1COCC2)N1CCC[C@H]1Cn1ccc(-c2ccccc2)n1 | 28.2
CCc1cnc(NC[C@@H]2[C@H](C)CCCN2C(=O)c2c(-c3ccccc3)nc3ccccn23)nc1 | -2.51
O=C(c1c(-c2ccccc2)nc2ccccn12)N1CCC[C@H]1Cn1ccc(-c2ccccc2)n1 | 46.1

Alright, here's another compound for you.
Consider `CCc1cnc(OC[C@@H]2CCCN2C(=O)c2c(-c3ccccc3)nc3ccccn23)nc1` . Its measured inhibition at 1 µM is 11.2
